Examples of molecules with documented MDCK-MDR1: % Recov B-A follow.
Tested on: MDR1-MDCK cell monolayers
Settings: dog, MDCK-MDR1, 120 min, 5 μM, pH 7.4
Measured attribute: MDCK-MDR1: % Recov B-A

INSERT INTO assay_data (molecule, target_desc, measured_attribute, experimental_value) VALUES
  ('CC(=O)Nc1ccc(-c2ccc(N(C)[C@@H]3C[C@H]4CC[C@H](N4)[C@@H]3F)nn2)c(O)c1 (single isomer, unassigned) [Compound 32A]', 'MDR1-MDCK cell monolayers', 'MDCK-MDR1: % Recov B-A', '98%'),
  ('CN(c1ccc(-c2cc3ncn(CC(F)(F)F)c(=O)c3cc2O)nn1)[C@H]1C[C@@H]2CC[C@H]([C@H]1F)N2C (single isomer, unassigned) [Compound 108B]', 'MDR1-MDCK cell monolayers', 'MDCK-MDR1: % Recov B-A', '101%'),
  ('CN(c1ccc(-c2cnc(C#N)cc2O)nn1)[C@@H]1C[C@H]2CC[C@H](N2)[C@@H]1F (single isomer, unassigned) [Compound 71A]', 'MDR1-MDCK cell monolayers', 'MDCK-MDR1: % Recov B-A', '92%');

###

System: MDR1-MDCK cell monolayers
Assay: Blood-brain-barrier (BBB) penetration potential via MDCK-MDR1 permeability assay
Settings: A-B direction
Measured attribute: MDCK-MDR1: % Recov A-B (%)

INSERT INTO assay_data (molecule, measured_attribute, quantity_unit, experimental_value) VALUES
  ('CN(c1ccc(-c2cc3cnn(C)c3cc2O)nn1)[C@@H]1C[C@H]2CC[C@H](N2)[C@@H]1F [Compound 76A]', 'MDCK-MDR1: % Recov A-B', '%', 83),
  ('CN(c1ccc(-c2cc3c(=O)n(C)ccc3s2)nn1)[C@@H]1C[C@H]2CC[C@H](N2)[C@@H]1F (single isomer, unassigned) [Compound 68A]', 'MDCK-MDR1: % Recov A-B', '%', 92),
  ('CN(c1ccc(-c2ccc(-n3ccnn3)cc2O)nn1)[C@@H]1C[C@H]2CC[C@H](N2)[C@@H]1F [Compound 61A]', 'MDCK-MDR1: % Recov A-B', '%', 91);

###

Tested on: MDR1 (P-gp)
Assay: Blood-brain-barrier (BBB) penetration potential via MDCK-MDR1 permeability assay
Conditions: dog, MDCK-MDR1, pH 7.4, MDCK-MDR1: Papp B-A, B-A direction
Mark Condition not met for Papp B→A at 120 min, 5 μM values under 70 ×10⁻⁶ cm/s, and Condition met for everything at or above.

INSERT INTO measurements (compound, assigned_category) VALUES
  ('CN(c1ccc(-c2cc(F)c(-c3ccn(C)c(=O)c3)cc2O)nn1)[C@@H]1C[C@H]2CC(F)(F)[C@@H](C1)N2 [Compound 22A]', 'Condition met'),
  ('CN(c1ccc(-c2cc3oc(=O)n(C)c3cc2O)nn1)[C@@H]1C[C@H]2CC[C@H](N2)[C@@H]1F (single isomer, unassigned) [Compound 79A]', 'Condition not met'),
  ('CN(c1ccc(-c2ccc(C#N)cc2O)nn1)[C@H]1C[C@@H]2CC[C@@H](N2)[C@H]1F [Compound 38B]', 'Condition not met'),
  ('CN(c1ccc(-c2ccc(-c3cnn(C(F)F)c3)cc2O)nn1)[C@@H]1C[C@H]2CCC[C@H](N2)[C@@H]1F [Compound 21A]', 'Condition not met'),
  ('Cc1nc2cc(O)c(-c3ccc(N(C)[C@H]4C[C@@H]5CC[C@@H](N5)[C@H]4F)nn3)cc2o1 (single isomer, unassigned) [Compound 40B]', 'Condition met');

Taken from patent US12509460B2.
